B1: HESX1 (parent)
chain: SKYENYFSASERLSLKRELSWYRG

- Variants of: B1
- test_details: protein stability index of a GFP-peptide fusion (GPS, HEK-293T) (PSI 1-6); higher = more stable;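 note: lentivirally expressed fusions sorted by FACS into six bins by GFP to DsRed ratio, PSI derived from sequencing read proportions per bin multiplied by bin number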
- cond: c terminus: a fixed tail appended
property_name: protein stability index

primary_sequence	property_name	assay_value
SKYEYYFSASERLSLKRELSWYRG	protein stability index	2.24
SKYENYVSASERLSLKRELSWYRG	protein stability index	3.05
SKYENYTSASERLSLKRELSWYRG	protein stability index	3.02
SKYENYFSTSERLSLKRELSWYRG	protein stability index	2.18
SKYENYFSASERLSLKRKLSWYRG	protein stability index	1.99
SKYENYFSASERLSIKRELSWYRG	protein stability index	1.86
SKYENRFSASERLSLKRELSWYRG	protein stability index	1.84
SYYENYFSASERLSLKRELSWYRG	protein stability index	1.81
SKYYNYFSASERLSLKRELSWYRG	protein stability index	2.33
SKYENYFSASERLSLKRELSAYRG	protein stability index	4.19
SKYENYFSASERLELKRELSWYRG	protein stability index	2.14
SVYENYFSASERLSLKRELSWYRG	protein stability index	1.77
SKYENYFDASERLSLKRELSWYRG	protein stability index	3.25
SKYENYFSASERLSLKRERSWYRG	protein stability index	2.18
SKYENYFSASEDLSLKRELSWYRG	protein stability index	2.32
SKYENYFSASERLSLKRELSWYDG	protein stability index	2.1
SKYENYFKASERLSLKRELSWYRG	protein stability index	1.62
SKYENYISASERLSLKRELSWYRG	protein stability index	1.98
SKYENYFSASERLSLKRELIWYRG	protein stability index	2.8
SKYENYFSASIRLSLKRELSWYRG	protein stability index	1.71
SKYENYSSASERLSLKRELSWYRG	protein stability index	2.83
SKYENYFSASKRLSLKRELSWYRG	protein stability index	2.04

This collection of values is drawn from the supplement of paper PMC10567573.
